# test_description: Cell viability assay (CellTiter-Glo) on MOLM-13
# Format: cell-based
# stated_conditions: human, MOLM-13 cells, 2.5 µM, average of two biological replicates
measured_quantity: viability at 72 h, […] (%)
One number for each entry, in %.

compound | viability at 72 h, […] [%]
CC1(C)CCN(Cc2cc(F)c(N3CC(=O)NC4(CCN(c5cc(NCc6cn(CCCCCCCCCCC(=O)Nc7cccc8c7CN(C7CCC(=O)NC7=O)C8=O)nn6)ncn5)CC4)C3)cc2F)CC1 (centres unmarked) | 92.6

Hey, can you go through the list below and give me viability at 72 h, […] for every item?
1. CC1(C)CCN(Cc2cc(F)c(N3CC(=O)NC4(CCN(c5cc(NCc6cccc(CNC(=O)CCCCCCCCCCn7cc(CNc8cccc9c8C(=O)N(C8CCC(=O)NC8=O)C9=O)nn7)c6)ncn5)CC4)C3)cc2F)CC1 (centres unmarked)
2. CC1(C)CCN(Cc2cc(F)c(N3CC(=O)NC4(CCN(c5cc(NCC6CCN(C(=O)CCCCCNc7cccc8c7C(=O)N(C7CCC(=O)NC7=O)C8=O)CC6)ncn5)CC4)C3)cc2F)CC1 (centres unmarked)
3. CC1(C)CCN(Cc2cc(F)c(N3CC(=O)NC4(CCN(c5cc(NCCN6CCN(c7cnc(N8CCN(C(=O)CCCNc9cccc%10c9C(=O)N(C9CCC(=O)NC9=O)C%10=O)CC8)nc7)CC6)ncn5)CC4)C3)cc2F)CC1 (centres unmarked)
4. CC1(C)CCN(Cc2cc(F)c(N3CC(=O)NC4(CCN(c5cc(NCC6CCN(C(=O)CCCNc7ccc8c(c7)C(=O)N(C7CCC(=O)NC7=O)C8=O)CC6)ncn5)CC4)C3)cc2F)CC1 (centres unmarked)

[90.7, 109, 95.3, 95.2]

----------
# test_description: Cell viability assay (CellTiter-Glo) on MOLM-13
# Assay type: cell-based
# stated_conditions: human, MOLM-13 cells, 2.5 µM, average of two biological replicates
# Procedure: MOLM-13, NOMO-1, THP-1, Kasumi-1, PC3, and DU145 cell lines were obtained from DSMZ-German Collection of Microorganisms and Cell Cultures GmbH. […] Cell viability was determined using a CellTiter-Glo luminescent cell viability assay (Promega) based on the detection of ATP according to the manufacturer’s instructions. […] Background luminescence value was obtained from wells containing the CellTiter-Glo reagent and medium without cells. The resulting data was analyzed in GraphPad Prism 9.
measured_quantity: viability at 72 h, […] (%)
One number for each entry, in %.

The examples below pair each entry with its known result.
compound | units_text | viability at 72 h, […]
CC1(C)CCN(Cc2cc(F)c(N3CC(=O)NC4(CCN(c5cc(NCc6cccc(CNC(=O)CCCNc7cccc8c7C(=O)N(C7CCC(=O)NC7=O)C8=O)c6)ncn5)CC4)C3)cc2F)CC1 (stereo not shown) | % | 103
CC1(C)CCN(Cc2cc(F)c(N3CC(=O)NC4(CCN(c5cc(NCCN6CCN(c7cccc8c7C(=O)N(C7CCC(=O)NC7=O)C8=O)CC6)ncn5)CC4)C3)cc2F)CC1 (stereo not shown) | % | 103
CC1(C)CCN(Cc2cc(F)c(N3CC(=O)NC4(CCN(c5cc(NCc6cccc(CNC(=O)CCCCCNc7cccc8c7C(=O)N(C7CCC(=O)NC7=O)C8=O)c6)ncn5)CC4)C3)cc2F)CC1 (stereo not shown) | % | 97.2

Now consider the entry below.
Consider the compound shown here: CC1(C)CCN(Cc2cc(F)c(N3CC(=O)NC4(CCN(c5cc(NCC6CCN(C(=O)CCCNc7cccc8c7C(=O)N(C7CCC(=O)NC7=O)C8=O)CC6)ncn5)CC4)C3)cc2F)CC1 (stereo not shown) What is its recorded viability at 72 h, […]?
96.2
